# target_or_test_system: recombinant alpha-glucosidase from Saccharomyces cerevisiae, which is a maltase (Saccharomyces cerevisiae)
# test_name: cell-based or functional assay
measured_quantity: Inhibitory activity on α-glucosidase (IC50) in mmol/l (mmol/L)

Worked set:
INSERT INTO results (binder, measured_number) VALUES
  ('IY [IY peptide]', 12.3),
  ('KW [KW peptide]', 12.8),
  ('LKP [LKP peptide]', 7.11),
  ('GPL [GPL peptide]', 4.82),
  ('VY [VY peptide]', 2.7),
  ('SAPLRVY [SAPLRVY (SEQ ID NO: 3)]', 1.76);

P. VGVAPG [VGVAPG (SEQ ID NO: 7)]
Q. AVPYQR [AVPYQR (SEQ ID NO: 5)]
R. KY [KY peptide]
Sort the binders on Inhibitory activity on α-glucosidase (IC50) in mmol/l; start with the lowest figure. Give the labels in the order requested.
Q, P, R
(Q: 3.19 mmol/L, P: 4.59 mmol/L, R: 11 mmol/L)

a. VAPG [VAPG (SEQ ID NO: 6)]
b. AP [AP peptide]
c. VAP [VAP peptide]
d. VAPFPEV [VAPFPEV (SEQ ID NO: 4)]
# ascending order, key=Inhibitory activity on α-glucosidase (IC50) in mmol/l Labels, ranked as asked.
b, c, d, a
(b: 0.0136 mmol/L, c: 0.02 mmol/L, d: 2.68 mmol/L, a: 4.05 mmol/L)
